assay: Intracellular fraction of unbound drug (fu,cell), dialysis of human hepatocyte homogenate; format: in vitro ADME; details: homogenate of cryopreserved human hepatocytes, geometrical mean ± SD of triplicates
true (1) means recorded fraction unbound at 4 h is 0.002 or above; false (0) means it is below 0.002.

Compound Structure String: CC[C@H]1OC(=O)[C@H](C)C(=O)[C@H](C)[C@@H](O[C@@H]2O[C@H](C)C[C@H](N(C)C)[C@H]2O)[C@](C)(OC)C[C@@H](C)C(=O)[C@H](C)[C@H]2N(CCCCn3cnc(-c4cccnc4)c3)C(=O)O[C@]12C
Assigned Category: true (1)

Compound Structure String: C[C@@H](Oc1cc(-c2cnn(C3CCNCC3)c2)cnc1N)c1c(Cl)ccc(F)c1Cl
Assigned Category: false (0)

Compound Structure String: CC[C@H]1OC(=O)[C@H](C)[C@@H](O[C@H]2C[C@@](C)(OC)[C@@H](O)[C@H](C)O2)[C@H](C)[C@@H](O[C@@H]2O[C@H](C)C[C@H](N(C)C)[C@H]2O)[C@](C)(O)C[C@@H](C)C(=O)[C@H](C)[C@@H](O)[C@]1(C)O
Assigned Category: true (1)

Compound Structure String: CCc1nn(CCCN2CCN(c3cccc(Cl)c3)CC2)c(=O)n1CCOc1ccccc1
Assigned Category: false (0)

Compound Structure String: CC[C@H]1OC(=O)[C@H](C)[C@@H](O[C@H]2C[C@@](C)(OC)[C@@H](O)[C@H](C)O2)[C@H](C)[C@@H](O[C@@H]2O[C@H](C)C[C@H](N(C)C)[C@H]2O)[C@](C)(O)C[C@@H](C)/C(=N\OCOCCOC)[C@H](C)[C@@H](O)[C@]1(C)O
Assigned Category: true (1)

Compound Structure String: Cc1cn(-c2cc(NC(=O)c3ccc(C)c(Nc4nccc(-c5cccnc5)n4)c3)cc(C(F)(F)F)c2)cn1
Assigned Category: false (0)
